Below, each of the compounds is paired with its reported pIC50 value.
# SYSTEM TESTED: SIK2 (Homo sapiens, UniProt Q9H0K1)
# Construct: purchased ThermoFisher Scientific PV4792
# Sequence (Q9H0K1 whole entry): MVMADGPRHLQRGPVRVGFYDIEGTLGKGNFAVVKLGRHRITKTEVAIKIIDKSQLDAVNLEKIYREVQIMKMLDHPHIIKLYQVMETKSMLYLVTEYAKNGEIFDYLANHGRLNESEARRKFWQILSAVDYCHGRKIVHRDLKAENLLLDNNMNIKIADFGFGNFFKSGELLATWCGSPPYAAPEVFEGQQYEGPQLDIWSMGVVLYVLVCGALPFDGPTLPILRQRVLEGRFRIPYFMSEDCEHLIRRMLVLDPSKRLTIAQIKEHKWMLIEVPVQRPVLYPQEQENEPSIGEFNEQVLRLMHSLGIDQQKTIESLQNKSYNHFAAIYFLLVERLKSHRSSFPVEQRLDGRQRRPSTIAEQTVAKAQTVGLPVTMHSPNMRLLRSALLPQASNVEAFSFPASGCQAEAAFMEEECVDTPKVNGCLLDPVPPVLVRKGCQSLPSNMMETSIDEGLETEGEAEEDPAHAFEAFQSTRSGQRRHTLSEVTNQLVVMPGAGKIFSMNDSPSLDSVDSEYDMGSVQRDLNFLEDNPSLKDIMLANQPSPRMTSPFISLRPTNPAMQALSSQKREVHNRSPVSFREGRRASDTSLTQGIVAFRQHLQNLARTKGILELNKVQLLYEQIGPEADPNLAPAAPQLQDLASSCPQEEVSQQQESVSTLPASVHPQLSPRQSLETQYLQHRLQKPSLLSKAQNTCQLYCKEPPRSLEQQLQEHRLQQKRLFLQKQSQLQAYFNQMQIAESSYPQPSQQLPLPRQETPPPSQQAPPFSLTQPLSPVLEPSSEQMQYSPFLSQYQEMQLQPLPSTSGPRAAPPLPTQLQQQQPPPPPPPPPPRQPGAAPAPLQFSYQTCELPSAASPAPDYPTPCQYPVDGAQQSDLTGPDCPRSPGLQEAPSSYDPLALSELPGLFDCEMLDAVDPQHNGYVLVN
# EXPERIMENTAL PROTOCOL: 33P radioactive kinase assay, SIK2; note: AMARA 5 µM, 10 µM ATP
# Format: biochemical
pIC50: −log10 of the molar value.
REPORTED PROPERTY: pIC50

> print(dat)
                                   compound  experimental.result
1  COc1cc(-n2cnc3cc(C4(C#N)CCC4)ccc32)cc(OC)c1C(=O)NC1CC1               < 6.30
2  COc1cc(-n2cnc3cc(C(C)(C)C#N)ccc32)cc(OC)c1C(=O)NCC(F)(F)F               < 6.30
3  COc1cc(-c2cnc3cc(C(C)(C)C#N)ccn23)cc(OC)c1C(=O)N1CC(F)(F)C1               < 6.30
4  CCNC(=O)c1c(OC)cc(-c2cnc3cc(C(C)(C)C(N)=O)ccn23)cc1OC               < 6.30
5  COc1cc(-c2cnc3cc(C(C)(C)C#N)ccn23)cc(OC)c1C(=O)NC1CC1               < 6.30
6  COc1cc(-c2cnc3cc(C(C)C#N)ccn23)cc(OC(F)F)c1C(=O)NC1CC1 (centres unmarked)         6.30 to 7.00
7  COc1cc(-n2cnc3cc(C(C)(C)C#N)ccc32)cc(OC(F)F)c1C(=O)NC1CC1               < 6.30
8  COc1cc(-c2cnc3cc(C4CCCN(C)C4)ccn23)cc(OC)c1C(=O)NCC(F)(F)F (centres unmarked)         6.30 to 7.00

====

# SYSTEM TESTED: SIK3 (Homo sapiens, UniProt Q9Y2K2)
# Construct: purchased SignalChem S12-11G-100
# Sequence (Q9Y2K2 59-365 limits assumed): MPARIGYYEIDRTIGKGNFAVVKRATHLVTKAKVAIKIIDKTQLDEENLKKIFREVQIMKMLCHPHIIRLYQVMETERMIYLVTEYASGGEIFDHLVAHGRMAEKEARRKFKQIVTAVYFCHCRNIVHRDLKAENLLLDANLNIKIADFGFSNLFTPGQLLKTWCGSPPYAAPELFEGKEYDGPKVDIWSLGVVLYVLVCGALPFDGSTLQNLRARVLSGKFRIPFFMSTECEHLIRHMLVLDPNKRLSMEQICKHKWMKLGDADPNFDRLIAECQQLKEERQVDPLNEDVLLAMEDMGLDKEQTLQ
# EXPERIMENTAL PROTOCOL: 33P radioactive kinase assay, SIK3
# Format: biochemical
# CONDITION LABEL: 33P radioactive assay; AMARA 7 μM; 15 μM ATP; 80 min; average IC50
REPORTED PROPERTY: IC50

> print(dat)
                                   compound  experimental.result
1  COc1cc(-c2cnc3cc(C4CCCNC4)ccn23)cc(OC)c1C(=O)NCC(F)(F)F (centres unmarked) [Cpd 23]         10 to 100 nM
2  COc1cc(-c2cnc3cc(C4(C#N)CCC4)ccn23)cc(OC(F)F)c1C(=O)NC1CC1 [Cpd 34]         10 to 100 nM
3  COc1cc(-n2cnc3cc(C(C)C#N)ccc32)cc(OC)c1C(=O)NCC(F)(F)F (centres unmarked) [Cpd 15]             > 500 nM
4  COc1cc(-c2cnc3cc(C(C)C#N)ccn23)cc(OC(F)F)c1C(=O)NC1CC1 (centres unmarked) [Cpd 26]         10 to 100 nM
5  COc1cc(-n2cnc3cc(C4(C#N)CCC4)ccc32)cc(OC)c1C(=O)NC1CC1 [Cpd 14]             > 500 nM
6  COc1cc(-n2cnc3cc(C4CCN(C(=O)OC(C)(C)C)CC4)ccc32)cc(OC)c1C(=O)NCC(F)(F)F [Cpd 2]        100 to 500 nM
7  COc1cc(-c2cnc3cc(C(C)(C)C#N)ccn23)cc2c1C(=O)N(CC(F)(F)F)CC2 [Cpd 25]         10 to 100 nM
8  COc1cc(-c2cnc3cc(C(C)(C)C#N)ccn23)cc(OC)c1C(=O)NCC(F)(F)F [Cpd 17]         10 to 100 nM

====

# SYSTEM TESTED: SIK3 (Homo sapiens, UniProt Q9Y2K2)
# Construct: purchased SignalChem S12-11G-100
# EXPERIMENTAL PROTOCOL: ADP-Glo kinase assay, SIK3
# Type: biochemical
# CONDITION LABEL: ADP-Glo; AMARA 45 μM; 5 μM ATP; 120 min; average IC50
pIC50: −log10 of the molar value.
REPORTED PROPERTY: pIC50

> print(dat)
                                   molecule  experimental.result
1  COc1cc(-c2cnc3cc([C@@](C)(C#N)CO)ccn23)cc(OC(F)F)c1C(=O)NC1CC1 (single isomer, unassigned) [Cpd 190]         7.00 to 8.00
2  CC[C@](C)(O)c1ccn2c(-c3cc(OC)c(C(=O)NC4CC4)c(OC(F)F)c3)cnc2c1 (single isomer, unassigned) [Cpd 165]         7.00 to 8.00
3  COc1cc(-c2cnn3cc(C4COCCO4)ccc23)cc(OC(F)F)c1C(=O)N[C@@H]1C[C@@H]1F (stereo partly shown) [Cpd 240]        8.00 to 11.00
4  COc1cc(-c2cnc3cc([C@@](C)(O)C4CC4)ccn23)cc(OC(F)F)c1C(=O)NC1CC1 (single isomer, unassigned) [Cpd 163]         7.00 to 8.00

====

Below, each of the molecules is paired with its reported pIC50 value.
# SYSTEM TESTED: SIK3 (Homo sapiens)
# Construct: purchased SignalChem S12-11G-100
# EXPERIMENTAL PROTOCOL: ADP-Glo kinase assay, SIK3
# Assay type: biochemical
pIC50: −log10 of the molar value.
REPORTED PROPERTY: pIC50

> print(dat)
                                   molecule  experimental.result
1  COc1cc(-c2cnc3cc(C(C)(O)C4CCOCC4)ccn23)cc(OC(F)F)c1C(=O)NC1CC1 (centres unmarked)         7.00 to 8.00
2  COc1cc(-c2cnn3cc(C(C)(C)C#N)ccc23)cc(OC)c1C(=O)N[C@@H]1C[C@@H]1F         7.00 to 8.00
3  COc1cc(-c2cnc3cc(C4CCC4)ccn23)cc(OC(F)F)c1C(=O)NC1CC1        8.00 to 11.00
4  COc1cc(-c2cnc3cc(C(C)(O)CC#N)ccn23)cc(OC(F)F)c1C(=O)NC1CC1 (centres unmarked)        8.00 to 11.00
5  COc1cc(-c2cnc3cc(C(C)(C)N)ccn23)cc(OC(F)F)c1C(=O)NC1CC1        8.00 to 11.00
6  COc1cc(-c2cnc3cc(C4COC4)ccn23)cc(OC(F)F)c1C(=O)NC1CC1        8.00 to 11.00
7  COc1cc(-c2cnn3cc(C(C)(C)OCCO)ccc23)cc(OC(F)F)c1C(=O)NC1CC1         7.00 to 8.00
8  CCC1(NC(=O)c2c(OC)cc(-c3cnc4cc(C(C)(C)C#N)ccn34)cc2OC(F)F)CC1               < 6.30

====

# SYSTEM TESTED: SIK1 (Homo sapiens)
# Construct: purchased Carna Biosciences 02-131
# Sequence (P57059 whole entry): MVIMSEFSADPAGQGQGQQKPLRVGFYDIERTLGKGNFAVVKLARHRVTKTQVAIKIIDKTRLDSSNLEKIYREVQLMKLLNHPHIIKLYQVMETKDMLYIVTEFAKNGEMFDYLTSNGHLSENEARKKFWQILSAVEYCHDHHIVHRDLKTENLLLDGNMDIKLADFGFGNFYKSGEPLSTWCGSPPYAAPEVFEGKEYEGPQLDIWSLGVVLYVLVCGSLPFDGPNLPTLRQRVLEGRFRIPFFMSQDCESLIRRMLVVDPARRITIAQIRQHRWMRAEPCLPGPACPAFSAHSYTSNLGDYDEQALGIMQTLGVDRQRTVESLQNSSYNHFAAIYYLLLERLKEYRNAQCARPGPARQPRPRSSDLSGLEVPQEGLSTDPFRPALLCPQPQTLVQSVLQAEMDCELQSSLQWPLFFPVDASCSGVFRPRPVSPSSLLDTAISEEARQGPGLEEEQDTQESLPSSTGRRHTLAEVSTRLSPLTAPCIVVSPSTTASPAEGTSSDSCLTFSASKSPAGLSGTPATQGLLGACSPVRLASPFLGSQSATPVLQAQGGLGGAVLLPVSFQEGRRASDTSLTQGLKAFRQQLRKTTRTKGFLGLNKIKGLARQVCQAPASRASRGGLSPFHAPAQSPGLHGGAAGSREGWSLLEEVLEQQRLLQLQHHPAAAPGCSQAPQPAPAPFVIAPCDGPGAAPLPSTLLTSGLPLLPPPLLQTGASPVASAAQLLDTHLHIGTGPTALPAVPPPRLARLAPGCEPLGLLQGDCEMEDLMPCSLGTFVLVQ
# EXPERIMENTAL PROTOCOL: ADP-Glo kinase assay, SIK1
# Type: biochemical
REPORTED PROPERTY: IC50

> print(dat)
                                    compound  experimental.result
 1  COc1cc(-c2cnn3cc(C(C)(C)CO)ccc23)cc(OC(F)F)c1C(=O)N[C@@H]1C[C@@H]1F             > 500 nM
 2  COc1cc(-c2cnc3cc([C@@](C)(O)C4CC4)ccn23)cc(OC(F)F)c1C(=O)NC1CC1 (single isomer, unassigned)             > 500 nM
 3  COc1cc(-c2cnc3cc(C4CCC4)c(F)cn23)cc(OC(F)F)c1C(=O)NC1CC1        100 to 500 nM
 4  CCN(CC)C(=O)C1(c2ccn3c(-c4cc(OC)c(C(=O)NC5CC5)c(OC(F)F)c4)cnc3c2)CC1             > 500 nM
 5  COc1cc(-c2cnc3cc(C(C)(C)C4CCO4)ccn23)cc(OC(F)F)c1C(=O)NC1CC1 (stereo not shown)             > 500 nM
 6  COc1cc(-c2cnc3cc(C(C)(C)C#N)ccn23)cc(OC(F)F)c1C(=O)N1CCN(C)CC1             > 500 nM
 7  COc1cc(-c2cnc3cc(C4(C)CN(C)CCO4)ccn23)cc(OC(F)F)c1C(=O)NCC(F)(F)F (stereo not shown)             > 500 nM
 8  COc1cc(-c2cnc3cc(C(C)(C)C#N)ccn23)cc(OC(F)F)c1C(=O)NCC1COC1             > 500 nM
 9  COc1cc(-c2cnc3cc(C(C)(C)C#N)ccn23)cc(OC(F)F)c1C(=O)N(C)C1CC1             > 500 nM
10  COc1cc(-c2cnc3cc(C(F)(F)C(=O)O)ccn23)cc(OC(F)F)c1C(=O)NC1CC1        100 to 500 nM
11  CCN(C)C(=O)c1c(OC)cc(-c2cnc3cc(C(C)(C)C#N)ccn23)cc1OC(F)F             > 500 nM
12  COc1cc(-c2cnc3cc(C(C)(C)C#N)ccn23)cc(OC(F)F)c1C(=O)N1CC(F)C1             > 500 nM
13  COc1cc(-c2cnc3cc(C(C)C#N)ccn23)cc(OC(F)F)c1C(=O)NC1CC1 (stereo not shown)             > 500 nM
14  COc1cc(-c2cnc3cc(C4(O)COC4)ccn23)cc(OC(F)F)c1C(=O)N[C@@H]1C[C@@H]1F             > 500 nM
15  COc1cc(-c2cnc3cc(C(C)(C#N)CO)ccn23)cc(OC(F)F)c1C(=O)NC1CC1 (stereo not shown)             > 500 nM
16  COc1cc(-c2cnc3cc(C(C)(C)C#N)ccn23)cc(OC(F)F)c1C(=O)N1CC(N)C1             > 500 nM
17  COc1cc(-c2cnc3cc(C4(F)COC4)ccn23)cc(OC(F)F)c1C(=O)NC1CC1             > 500 nM
18  COc1cc(-c2cnn3cc(C(C)(C)CO)ccc23)cc(OC(F)F)c1C(=O)NC1CC1             > 500 nM
19  COc1cc(-c2cnc3cc(C4(C(=O)NCCO)CC4)ccn23)cc(OC(F)F)c1C(=O)NC1CC1             > 500 nM
20  CCNC(=O)C(C)(C)c1ccc2c(-c3cc(OC)c(C(=O)NC4CC4)c(OC(F)F)c3)cnn2c1             > 500 nM
21  COc1cc(-c2cnc3cc(C(C)(O)C(F)(F)F)ccn23)cc(OC(F)F)c1C(=O)NC1CC1 (stereo not shown)             > 500 nM
22  COc1cc(-c2cnc3cc(C(C)(C)C#N)ccn23)cc(OC(F)F)c1C(=O)N1CC(O)(C2CC2)C1             > 500 nM
23  COc1cc(-c2cnc3cc(C(C)(C)C#N)ccn23)cc(OC(F)F)c1C(=O)NCC(F)F             > 500 nM
24  COC(=O)C1(c2ccn3c(-c4cc(OC)c(C(=O)NC5CC5)c(OC(F)F)c4)cnc3c2)CC1             > 500 nM
25  COc1cc(-c2cnc3cc(C4CCCN4C(C)=O)ccn23)cc(OC(F)F)c1C(=O)NC1CC1 (stereo not shown)             > 500 nM
26  COCC(C)(O)c1ccn2c(-c3cc(OC)c(C(=O)NC4CC4)c(OC(F)F)c3)cnc2c1 (stereo not shown)             > 500 nM
27  COc1cc(-c2cnc3cc(C(C)N(C)CCO)ccn23)cc(OC(F)F)c1C(=O)NC1CC1 (stereo not shown)             > 500 nM
28  COC(=O)NC1(c2ccc3c(-c4cc(OC)c(C(=O)N[C@@H]5C[C@@H]5F)c(OC(F)F)c4)cnn3c2)CCC1             > 500 nM
29  COc1cc(-c2cnc3cc(C(C)(C)C#N)ccn23)cc(OC(F)F)c1C(=O)NC1(C(C)C)CC1             > 500 nM
30  CCC(O)C(C)(C)c1ccn2c(-c3cc(OC)c(C(=O)NC4CC4)c(OC(F)F)c3)cnc2c1 (stereo not shown)             > 500 nM
31  COc1cc(-c2cnc3cc(C(C)(C)C(O)C(C)C)ccn23)cc(OC(F)F)c1C(=O)NC1CC1 (stereo not shown)             > 500 nM
